Formation of formazan dyes, absorbance, Means 2 h: recorded values
Tested on: diaphorase
Assay: Formation of formazan dyes: NADH and diaphorase, absence of malate (TABLE 7)
Format: biochemical, Clostridium kluyveri
Conditions: NADH and diaphorase, absence of malate; 2 h
experimental-readout: Formation of formazan dyes, absorbance, Means 2 h

[
  {
    "sample-smiles": "Cc1nc(-[n+]2nc(-c3cccc(OCC(=O)O)c3)nn2-c2ccc(S(=O)(=O)[O-])cc2)sc1C",
    "study-target": "diaphorase",
    "measured-result": 3.22
  },
  {
    "sample-smiles": "COc1cc(-c2ccc(-[n+]3nc(-c4ccc(C(=O)N(CCS(=O)(=O)[O-])CCS(=O)(=O)[O-])cc4)nn3-c3nc4ccccc4s3)c(OC)c2)ccc1-[n+]1nc(-c2ccc(C(=O)N(CCS(=O)(=O)[O-])CCS(=O)(=O)[O-])cc2)nn1-c1nc2ccccc2s1.[Na+].[Na+]",
    "study-target": "diaphorase",
    "measured-result": 2.79
  },
  {
    "sample-smiles": "COc1cc([N+](=O)[O-])ccc1-[n+]1nc(-c2ccc(S(=O)(=O)[O-])cc2S(=O)(=O)[O-])nn1-c1ccc([N+](=O)[O-])cc1.[Na+]",
    "study-target": "diaphorase",
    "measured-result": 3.77
  },
  {
    "sample-smiles": "COc1cc([N+](=O)[O-])c(S(=O)(=O)[O-])cc1-n1nc(C(=O)Nc2ccccc2)n[n+]1-c1cc(S(=O)(=O)O)c([N+](=O)[O-])cc1OC",
    "study-target": "diaphorase",
    "measured-result": 2.36
  },
  {
    "sample-smiles": "O=[N+]([O-])c1ccc(-[n+]2nc(-c3ccc(S(=O)(=O)[O-])cc3S(=O)(=O)[O-])nn2-c2ccc(I)cc2)cc1.[Na+]",
    "study-target": "diaphorase",
    "measured-result": 3.59
  }
]

* * *

Formation of formazan dyes, absorbance, Means 6 h: recorded values
System: diaphorase
Experiment: Formation of formazan dyes: NADH, diaphorase and malate (TABLE 8)
Format: biochemical, Clostridium kluyveri
Conditions: NADH, diaphorase and malate; 6 h
experimental-readout: Formation of formazan dyes, absorbance, Means 6 h

[
  {
    "compound": "COc1cc(-c2ccc(-[n+]3nc(-c4ccc(C(=O)N(CCS(=O)(=O)[O-])CCS(=O)(=O)[O-])cc4)nn3-c3nc4ccccc4s3)c(OC)c2)ccc1-[n+]1nc(-c2ccc(C(=O)N(CCS(=O)(=O)[O-])CCS(=O)(=O)[O-])cc2)nn1-c1nc2ccccc2s1.[Na+].[Na+] [WST-5]",
    "measured-result": 2.41
  },
  {
    "compound": "COc1cc([N+](=O)[O-])ccc1-[n+]1nc(-c2ccc(S(=O)(=O)[O-])cc2S(=O)(=O)[O-])nn1-c1ccc([N+](=O)[O-])cc1.[Na+] [WST-8]",
    "measured-result": 3.54
  },
  {
    "compound": "Cc1nc(-[n+]2nc(-c3cccc(OCC(=O)O)c3)nn2-c2ccc(S(=O)(=O)[O-])cc2)sc1C [MTS]",
    "measured-result": 3.09
  },
  {
    "compound": "O=[N+]([O-])c1ccc(-[n+]2nc(-c3ccc(S(=O)(=O)[O-])cc3S(=O)(=O)[O-])nn2-c2ccc(I)cc2)cc1.[Na+] [WST-1]",
    "measured-result": 2.52
  },
  {
    "compound": "COc1cc([N+](=O)[O-])c(S(=O)(=O)[O-])cc1-n1nc(C(=O)Nc2ccccc2)n[n+]1-c1cc(S(=O)(=O)O)c([N+](=O)[O-])cc1OC [XTT]",
    "measured-result": 2.28
  }
]
